The measurements presented in this section are drawn from ChEMBL document CHEMBL4229505.

# assay-target: Transient receptor potential cation channel subfamily V member 1 (Homo sapiens, UniProt Q8NER1)
# Sequence (Q8NER1 whole entry): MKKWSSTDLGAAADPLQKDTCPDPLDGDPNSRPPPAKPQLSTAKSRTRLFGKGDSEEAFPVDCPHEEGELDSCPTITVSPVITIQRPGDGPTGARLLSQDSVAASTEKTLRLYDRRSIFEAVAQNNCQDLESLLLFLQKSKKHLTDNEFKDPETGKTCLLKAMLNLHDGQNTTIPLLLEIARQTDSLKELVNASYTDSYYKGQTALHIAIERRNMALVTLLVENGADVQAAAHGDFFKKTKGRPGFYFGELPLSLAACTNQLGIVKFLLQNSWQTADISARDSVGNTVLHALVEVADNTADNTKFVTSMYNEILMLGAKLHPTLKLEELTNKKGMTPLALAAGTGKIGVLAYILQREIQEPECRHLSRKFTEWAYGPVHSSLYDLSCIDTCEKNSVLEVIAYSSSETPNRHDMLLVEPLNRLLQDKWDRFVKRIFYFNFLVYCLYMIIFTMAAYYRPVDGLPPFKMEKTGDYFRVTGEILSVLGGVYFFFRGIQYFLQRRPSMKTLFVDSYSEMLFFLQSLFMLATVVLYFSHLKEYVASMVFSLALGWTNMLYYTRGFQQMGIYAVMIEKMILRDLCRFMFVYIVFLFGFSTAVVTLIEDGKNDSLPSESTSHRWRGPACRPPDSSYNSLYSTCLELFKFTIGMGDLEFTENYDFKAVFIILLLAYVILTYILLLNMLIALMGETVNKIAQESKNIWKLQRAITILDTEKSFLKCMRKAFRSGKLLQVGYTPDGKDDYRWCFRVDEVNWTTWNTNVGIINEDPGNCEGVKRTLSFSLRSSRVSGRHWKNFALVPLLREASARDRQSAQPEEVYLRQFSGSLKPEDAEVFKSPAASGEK
# procedure-summary: Antagonist activity at human TRPV1 expressed in CHOK1 cells assessed as reduction in low pH-induced receptor activation by measuring decrease in intracellular calcium level preincubated with cells for 5 mins followed by incubation under pH 6 to 6.3 condition by Fluo-4 dye based FLIPR assay
# Assay type: cell-based
pIC50: −log10 of the molar value.
quantity-measured: pIC50

| smiles | reported |
| --- | --- |
| CC1CCN(c2nc(C(F)(F)F)ccc2CNC(=O)Cc2cc(Cl)c(N)c(Cl)c2)CC1 | 6.80 |

###

# assay-target: Transient receptor potential cation channel subfamily V member 1 (Homo sapiens, UniProt Q8NER1)
# procedure-summary: Antagonist activity at human TRPV1 expressed in CHOK1 cells assessed as reduction in NADA-induced intracellular calcium level preincubated with cells followed by NADA addition measured after 5 mins by Fluo-4 dye based FLIPR assay
# Assay type: cell-based

| smiles | Ki |
| --- | --- |
| CC1CCN(c2nc(C(F)(F)F)ccc2CNC(=O)Cc2cc(Cl)c(N)c(Cl)c2)CC1 | 100 to 700 pM |

###

# assay-target: Transient receptor potential cation channel subfamily V member 1 (Homo sapiens)
# procedure-summary: Agonist activity at human TRPV1 expressed in CHO cells assessed as intracellular calcium accumulation by Fluo-4 dye based FLIPR assay
# Format: cell-based
Activity calls are given as the source filed them. No cut-off for these calls is given here.

| molecule | assay-target | Activity |
| --- | --- | --- |
| CC1CCN(c2nc(C(F)(F)F)ccc2CNC(=O)C(C)c2ccc(N)c(N)c2)CC1 (stereo unspecified) | Transient receptor potential cation channel subfamily V member 1 (Homo sapiens) | Active |
| CC1CCN(c2nc(C(F)(F)F)ccc2CNC(=O)C(C)c2ccc(N)c(F)c2)CC1 (stereo unspecified) | Transient receptor potential cation channel subfamily V member 1 (Homo sapiens) | Active |
| CC1CCN(c2nc(C(F)(F)F)ccc2CNC(=O)C(C)c2ccc(Nc3ccccn3)cc2)CC1 (stereo unspecified) | Transient receptor potential cation channel subfamily V member 1 (Homo sapiens) | Active |
| CC1CCN(c2nc(C(F)(F)F)ccc2CNC(=O)C(C)c2ccc(Nc3ccccc3)cc2)CC1 (stereo unspecified) | Transient receptor potential cation channel subfamily V member 1 (Homo sapiens) | Active |
| Cc1cc(C(C)C(=O)NCc2ccc(C(F)(F)F)nc2N2CCC(C)CC2)ccc1N (stereo unspecified) | Transient receptor potential cation channel subfamily V member 1 (Homo sapiens) | Active |
| COc1cc(C(C)C(=O)NCc2ccc(C(F)(F)F)nc2N2CCC(C)CC2)ccc1N (stereo unspecified) | Transient receptor potential cation channel subfamily V member 1 (Homo sapiens) | Active |
